Consider compounds characterized by their IC50 with Interleukin-1 receptor-associated kinase 4 (Homo sapiens, UniProt Q9NWZ3).
Sequence (Q9NWZ3 whole entry): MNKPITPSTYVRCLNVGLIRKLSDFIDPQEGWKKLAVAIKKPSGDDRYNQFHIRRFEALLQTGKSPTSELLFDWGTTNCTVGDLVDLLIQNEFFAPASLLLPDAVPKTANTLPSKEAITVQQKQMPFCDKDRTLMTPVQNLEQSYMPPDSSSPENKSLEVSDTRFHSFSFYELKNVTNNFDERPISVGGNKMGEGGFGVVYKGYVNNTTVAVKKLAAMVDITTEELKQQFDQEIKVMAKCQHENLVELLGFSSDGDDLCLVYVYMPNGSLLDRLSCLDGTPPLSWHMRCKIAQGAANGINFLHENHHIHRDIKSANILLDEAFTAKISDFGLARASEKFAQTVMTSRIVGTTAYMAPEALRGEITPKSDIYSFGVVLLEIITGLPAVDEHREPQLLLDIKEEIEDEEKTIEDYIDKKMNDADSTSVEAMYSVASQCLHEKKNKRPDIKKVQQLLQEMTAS

O=C1NCCCOC2CCCC(CNc3cc(ccn3)-c3nc1cs3)C2 (stereo not drawn) ... > 10 µM
Cn1cc2c(n1)C(=O)NCCOCCOc1cc(ccn1)-c1cc(cs1)C(=O)N2 ... < 0.1 µM

# input for lookup
Given CC(C)C1NC(=O)c2nn(C3CCOCC3)cc2NC(=O)c2csc(n2)-c2ccnc(c2)CCCNC1=O (stereo not drawn) , respond with its IC50.
< 10 µM
